# System: P388 leukemia ip, CD2F1 mice, survival T/C
# assayName: NCI In Vivo Anticancer Drug Screen. Data for tumor model P388 Leukemia (intraperitoneal) in CD2F1 (CDF1) mice
# experimentalParameters: endpoint: median survival time; dose: 60.0 mg/kg/injection; schedule: Q01DX005 (ip); vehicle: saline with Tween-80; higher = longer survival
Toxic doses and inconclusive results are not listed.
measuredEndpoint: T/C

Consider the reported T/C for these compounds:
>  <compound>
BrC1=NOC2c3cccc4cccc(c34)C12 (centres undefined)

>  <T/C>
108 % of control

$$$$
>  <compound>
Cc1ccc2cccc(CC(=O)NN)c2c1

>  <T/C>
104 % of control

$$$$
>  <compound>
COc1ccccc1NC(=O)CC(=O)N1N=C(N(c2ccccc2)c2ccccc2)CC1c1ccccc1 (centres undefined)

>  <T/C>
108 % of control

$$$$

Param readout= T/C; system= P388 leukemia ip, CD2F1 mice, survival T/C; entry= "Cc1cc(=O)c2c(=O)n(-c3ccccc3)[nH]c2[nH]1" ; returns value. 111 % of control

Give recorded T/C with P388 leukemia ip, CD2F1 mice, survival T/C for the following compound: CC(C)(C)OC1COCCO1 (centres undefined) 102 % of control
